Numbers sourced from patent US8802712B2.

# reported pIC50; entries follow
- Target Or Test System: DNA-PK (Homo sapiens (Human), UniProt P78527)
- Protocol: DNA-PK/Biochemical Assay (FlashPlate kinase assay)
- Test Conditions: 5 μM ATP, 90 min, room temperature
pIC50: −log10 of the molar value.

Use these answered entries as a reference point.
# Structure As Smiles, Recorded Value
measured = [
    ("COc1cc2ncc3c(c(-c4ccc(C#N)cc4)nn3C)c2cc1OCc1cc2ccccc2s1", "< 6.30"),
    ("CCn1nc(-c2ccc(C#N)cc2F)c2c3cc(OC)c(OC)cc3ncc21", "6.30 to 7.00"),
]

Next, consider the following molecule.
Short answer for COc1cc2ncc3c(c(-c4ccc(C#N)cc4)nn3C)c2cc1OCc1cccc(CN2CCOCC2)c1 : pIC50 was 6.30 to 7.00
